The following sequences are shown together with reported Screen values.
# Tested on: EPHB2 kinase domain
# protocolSummary: pTyr-Var library bacterial peptide display kinase screen (enrichment scores);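 note: log2 fold change in enrichment of variant over reference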
# Assay type: biochemical, human
# assayContext: sheet EPHB2; effect of variant peptide relative to its reference peptide in the pTyr-Var library screen (enrichment scores)
Lab note: write the figure by itself, no unit.

Test system EPHB2 kinase domain; read-out Screen; what value for AVARMYGVLPW [PLP1_Y207_D203V] ?
-2.007

And QPSALYEDRFL [ASS1_Y83_S79P_YF] ?
0.0303

And LHVKMYNFLRS [ADGRG7_Y760_R756H] ?
-0.4432

---

The following sequences are shown together with reported Screen values.
# Test system: EPHB2 kinase domain
# protocolSummary: pTyr-Var library bacterial peptide display kinase screen (enrichment scores);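 note: log2 fold change in enrichment of variant over reference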
# Format: biochemical, human
# assayContext: sheet EPHB2; effect of variant peptide relative to its reference peptide in the pTyr-Var library screen (enrichment scores)

Worked cases, answers included:
NNHGNYIVHLG [ETFDH_Y172_R175H]
1.999
ACQSLYGGFVE [MVD_Y164_R161Q]
1.328
QLQVFYATRDQ [MIPEP_Y579_L582R]
-1.278
QNTVDYFDLFG [PTPN11_Y62_G60V_YF]
-4.099
LKDEDYLKDTV [HAUS3_Y582_I586T]
0.5716

Given ADGLEYPRTGL [MMUT_Y287_S288P] , state its recorded Screen.
-1.339

And ADAGMYGVLPW [PLP1_Y207_R205G] ?
1.359

And RQSTLYSFFPT [MSH6_Y8_K13T] ?
0.1224

And FQKDVYNIPPS [NEDD9_Y177_D178N_YF] ?
-2.279

And HEEDNYIEMIP [NWD2_Y566_L569M] ?
-0.6493

And LTTEAYEWEPC [ELMOD3_Y61_R66C] ?
1.193

And QTPVLYTMLDH [MPZ_Y220_A221T] ?
-2.33

---

The following sequences are shown together with reported Screen values.
# Test system: Fer kinase domain
# protocolSummary: pTyr-Var library bacterial peptide display kinase screen (enrichment scores);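 note: log2 fold change in enrichment of variant over reference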
# Format: biochemical, mouse
# assayContext: sheet "Fer"; value of the variant peptide against its reference peptide in the pTyr-Var library screen with Fer

QLQVFYATRDQ [MIPEP_Y579_L582R]
-2.265
MASISYDFCRV [BST2_Y6_T4I_YF]
-0.4486
PFTRNYFVWAV [CYBA_Y87_R90W_YF]
2.258
KGEDFYSVTCH [FHL1_Y149_C150S]
2.793
NTGGFYDLFGG [PTPN11_Y63_D61G_YF]
1.072

// next item, Screen requested
Given VDTGVYAVPPP [BCAR1_Y410_S407T] , state its recorded Screen.
0.101

---

The following sequences are shown together with reported Screen values.
# assayedSystem: c-Src kinase domain (Homo sapiens)
# protocolSummary: pTyr-Var library bacterial peptide display kinase screen (enrichment scores);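 note: log2 fold change in enrichment of variant over reference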
# Assay type: biochemical
# assayContext: sheet "Src"; variant peptide versus its reference peptide in the pTyr-Var library screen
Lab note: write the figure by itself, no unit.

Worked cases, answers included:
EFRFIYMAVQH [PTPN11_Y515_Q510E_YF]
0.0506
HGEAVYSRDCV [XPC_Y676_R671H]
0.7041
KTGDFYDLFGG [PTPN11_Y63_N58K_YF]
-0.7427
PNRILYGDFQQ [MYH7_Y715_R719Q]
-0.8592
FRSSLYSLMET [MYO5C_Y633_L634S]
2.978
KMKGEYFRFLA [YWHAG_Y130_D129E_YF]
0.3869
NREGVYTDFAP [TGFBI_Y537_V539D]
-0.2611

Given FLLRVYSIFSK [SGCE_Y38_T36R] , state its recorded Screen.
-1.068

---

# assayedSystem: c-Src kinase domain (Homo sapiens, UniProt P12931)
# protocolSummary: pTyr-Var library bacterial peptide display kinase screen (enrichment scores);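 note: log2 fold change in enrichment of variant over reference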
# Format: biochemical
# assayContext: sheet "Src"; variant peptide versus its reference peptide in the pTyr-Var library screen
The following sequences are shown together with reported Screen values.

Worked cases, answers included:
QNTVDYFDLFG [PTPN11_Y62_G60V_YF]
-1.317
SLIDMYSEVLA [OPA1_Y268_D273A]
1.458
PLEGEYFTLQI [TP53_Y327_D324E]
0.9967
GRKTLYSFFSP [UNG_Y8_Q4R]
-1.198
PNRILYRDFRQ [MYH7_Y715_G716R]
-3.613

Given ADAGMYGVLPW [PLP1_Y207_R205G] , state its recorded Screen.
-0.01805

---

# assayedSystem: c-Abl kinase domain (Mus musculus, UniProt P00520)
# Sequence (P00520 242-493 limits assumed): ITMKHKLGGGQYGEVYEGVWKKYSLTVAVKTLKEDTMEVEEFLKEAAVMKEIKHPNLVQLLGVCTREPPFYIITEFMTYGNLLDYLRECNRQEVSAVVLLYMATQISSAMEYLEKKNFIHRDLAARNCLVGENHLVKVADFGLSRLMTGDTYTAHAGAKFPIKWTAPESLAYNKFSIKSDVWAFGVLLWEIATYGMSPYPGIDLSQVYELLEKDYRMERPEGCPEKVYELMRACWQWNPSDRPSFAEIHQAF
# protocolSummary: pTyr-Var library bacterial peptide display kinase screen (enrichment scores);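 note: log2 fold change in enrichment of variant over reference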
# Type: biochemical
# assayContext: fig5-data2, sheet "Abl"; Screen for the variant/reference peptide pair, pTyr-Var library
Response field label takes Met when Screen is strictly below -0.2 and Not met in all other cases.

Example results:
HNMPIYEGFAL [ACTA1_Y168_V165M_YF]
Met
HCFAAYFQQGD [GPI_Y351_R347C]
Not met
PFTRNYFVWAV [CYBA_Y87_R90W_YF]
Not met
RVSSVYTRSTG [CCR5_Y339_A335V]
Not met
HPAGNYSLSSV [ARFGAP3_Y473_Q468H]
Met
IVTLKYPIEHG [ACTB_Y69_L65V]
Met
LDLPGYCLLRE [CCDC116_Y291_P293L]
Met
TNFSLYLRSLE [MTM1_Y71_R69S_YF]
Met
NVSILYTASQA [CTNNA1_Y222_P219S]
Met
NSAFFYKTAEE [CCT6B_Y250_G247A]
Not met

Lab note: Screen threshold -0.2. Does this sequence come in strictly under it? PSSRDYKDNIK [PIGN_Y227_H229D]
Met

And PIGRKYKKVRF [F8_Y442_R437P] ?
Not met

And SLDLSYFHTSS [EMD_Y181_P183H_YF] ?
Met

And TKLKDYFIFNK [CCDC42_Y149_A144T_YF] ?
Met

And VVQGLYKSMRK [KBTBD2_Y250_P254R] ?
Not met

And QHVPDYRQNGF [PCDHGA1_Y890_V894G_YF] ?
Met

---

# Tested on: EPHB2 kinase domain
# protocolSummary: pTyr-Var library bacterial peptide display kinase screen (enrichment scores);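 note: log2 fold change in enrichment of variant over reference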
# Format: biochemical, human
# assayContext: sheet EPHB2; effect of variant peptide relative to its reference peptide in the pTyr-Var library screen (enrichment scores)
The following sequences are shown together with reported Screen values.
Lab note: write the figure by itself, no unit.

AGARMYGVLPW [PLP1_Y207_D203G]
-1.831

Given PLCPDYQEPSR [DDR2_Y481_R478C] , state its recorded Screen.
1.681

---

# Test system: EPHB2 kinase domain
# protocolSummary: pTyr-Var library bacterial peptide display kinase screen (enrichment scores);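 note: log2 fold change in enrichment of variant over reference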
# Format: biochemical, human
# assayContext: sheet EPHB2; effect of variant peptide relative to its reference peptide in the pTyr-Var library screen (enrichment scores)
The following sequences are shown together with reported Screen values.
Lab note: write the figure by itself, no unit.

Worked cases, answers included:
TKDTFYQQPMF [GBA_Y451_K452Q]
1.843
LPEHPYHSRPR [NDUFA8_Y142_N140H]
1.643
LEQDEYALHSH [HADHB_Y244_R247H]
-1.049
HNVPIYEGFGL [ACTA1_Y168_A172G_YF]
0.031
LNGDRYFKGIV [DCX_Y64_R59L]
1.457
INPIIYAFVVE [CCR5_Y297_G301V]
-1.294

Given ENGPFYASFPP [GDAP2_Y488_T489A_YF] , state its recorded Screen.
2.037

And FRSSLYSLMET [MYO5C_Y633_L634S] ?
1.684

All values here come from paper PMC10065799.
